Taken from patent US6894052B1.

# Test system: rhythmic bladder voiding contractions
# assay text: Volume-induced rhythmic bladder voiding contractions in anaesthetized rats
# Format: in vivo, rat
# protocol conditions: intravenous administration, anaesthetized rats; extrapolated dose inducing 10 min of disappearance of the contractions
assay endpoint: ED10min (mg/kg)
Express your answer in mg/kg, writing the number without its unit.

COc1ccccc1N1CCN(CCC(C#N)(c2ccccn2)c2ccccn2)CC1    0.225

ED10min value, target or system rhythmic bladder voiding contractions, for COc1ccccc1N1CCN(CCC(C(N)=O)(c2ccccc2)c2ccccn2)CC1 (stereo not shown) : 0.228

ED10min value, target or system rhythmic bladder voiding contractions, for COc1ccccc1N1CCN(CCC(c2ccccc2)c2ccccn2)CC1 (stereo not shown) : 0.077

ED10min value, target or system rhythmic bladder voiding contractions, for COc1ccccc1N1CCN(CCC(O)(c2ccccn2)c2ccccn2)CC1 : 0.127

ED10min value, target or system rhythmic bladder voiding contractions, for COc1ccccc1N1CCN(CCN(c2ccccn2)c2ccccn2)CC1.Cl : 0.523

ED10min value, target or system rhythmic bladder voiding contractions, for CCN(CC)CC#CCOC(=O)C(O)(c1ccccc1)C1CCCCC1 (stereo not shown) [Oxybutynin, reference compound] : 7.77

ED10min value, target or system rhythmic bladder voiding contractions, for COc1ccccc1N1CCN(CCC(c2ccccn2)c2ccccn2)CC1 : 0.074

ED10min value, target or system rhythmic bladder voiding contractions, for COc1ccccc1N1CCN(CCN(c2ccccn2)c2ccccc2[N+](=O)[O-])CC1 : 0.162

ED10min value, target or system rhythmic bladder voiding contractions, for COc1ccccc1N1CCN(CCC(C#N)(c2ccccc2)c2ccccn2)CC1.Cl.Cl (stereo not shown) : 0.078
